Tested on: Fibroblast
Assay: Multiplex assay against human fibroblast
Type: toxicity, cell-based
Conditions: 48 h, 10 µM, compound concentration 10 uM, replicate 1
Kindly supply the reported Population Hoechst High Intensity Objects (%) values for the records listed here.
Answers are plain numbers, in %.

>>> result("CC(C)(C)c1cc(NC(=O)Nc2ccc(-c3cn4c(n3)sc3cc(OCCN5CCOCC5)ccc34)cc2)no1 [QUIZARTINIB]")
7
>>> result("O=C1[C@H](Cc2ccc(O)cc2)N2C(=O)CCN(C(=O)NCc3ccccc3)[C@H]2CN1Cc1cccc2ccccc12")
15
>>> result("Cc1cnc(-c2cc(N3CCN(C(=O)CCS(C)(=O)=O)CC3)ncc2Cl)c(C)c1")
2
>>> result("Cc1onc(-c2ccccc2Cl)c1C(=O)N(C)c1ccc(Cl)cc1")
4
>>> result("Cc1noc(-c2ccc(-c3ccc(CC(=O)O)cc3)cc2)c1NC(=O)O[C@H](C)c1ccccc1Cl")
4
>>> result("Cc1sc2c(c1C)C(c1ccc(Cl)cc1)=N[C@@H](CC(=O)NCCCCCCCCNC(=O)COc1cccc3c1C(=O)N(C1CCC(=O)NC1=O)C3=O)c1nnc(C)n1-2 (some centres not stated)")
38

Look at each compound and report its Population Hoechst High Intensity Objects (%).
1. Cl.NCCc1ccc(O)c(O)c1 [DOPAMINE HYDROCHLORIDE]
2. CC[C@@H](C)Nc1nc(C)nc2c(-c3ccc(OC)nc3C)c(C)nn12 [PEXACERFONT]

Result:
4
3
